Ref: patent US20260183275A1

# assayed.system: human TLR8 (Homo sapiens)
# test.summary: TLR8 inhibition reporter assay (HEK-Blue cells, SEAP reporter)
# condition.details: HEK-Blue cells overexpressing human TLR8; stimulated with R848 15.9 μM; SEAP read after 22 hour; dose range 0.05 nM-50 μM
pIC50: −log10 of the molar value.
Examples of compounds with documented pIC50 follow.

In the examples that follow, each entry is paired with its recorded pIC50.
compound="CNC(=O)Nc1ccc(-c2cc3cc(-c4ccc(N5CCN(C(C)C)CC5)cc4)ccc3[nH]c2=O)cc1 [Example 49]" recorded_measurement="≤ 4.30"
compound="CC(=O)Nc1ccc(-c2cc3cc(-c4ccc(N5CCN(C(C)C)CC5)cc4)ccc3n(C)c2=O)cc1 [Example 57]" recorded_measurement=7.08
compound="CC(C)N1CCN(c2ccc(-c3ccc4c(c3)cc(-c3ccc(NC(=O)c5ccccn5)cc3)c(=O)n4C)cc2)CC1 [Example 50]" recorded_measurement="≤ 4.30"
compound="CC(C)N1CCC(c2ccc(-c3ccc4c(c3)cc(-c3ccc(N(C)C)cc3)c(=O)n4C)cc2)CC1 [Example 96]" recorded_measurement="≤ 4.30"
compound="CC(C)N1CCN(c2ccc(-c3ccc4[nH]c(=O)c(-c5ccc(C(=O)N6CCOCC6)cc5)cc4c3)cc2)CC1 [Example 55]" recorded_measurement="≤ 4.30"
compound="CCc1c(-c2ccc(S(C)(=O)=O)cc2)c(=O)n(C)c2ccc(-c3ccc(C4CCN(C(C)C)CC4)cc3)cc12 [Example 86]" recorded_measurement=5.81

IN: Param item = CC(C)N1CCC(N2CCC(c3ccc4[nH]c(=O)c(-c5ccccc5)cc4c3)CC2)CC1 [Example 64] ; retrieve measured pIC50.
OUT: ≤ 4.30

----------
# assayed.system: UniProtKB Q9NR97
# test.summary: TLR8 inhibition reporter assay (HEK-Blue cells, SEAP reporter)
# condition.details: HEK-Blue cells overexpressing human TLR8; stimulated with R848 15.9 μM; SEAP read after 22 hour; dose range 0.05 nM-50 μM
outcome.measure: IC50 (µM)

compound="CC(C)N1CCC(c2ccc(-c3ccc4c(c3)cc(-c3ccccc3)c(=O)n4C)cc2)CC1 [Example 73]" recorded_measurement=0.763
compound="CC(C)N1CCC(c2ccc(-c3ccc4c(c3)cc(-c3ccc(S(C)(=O)=O)cc3)c(=O)n4CC(C)(C)O)cc2)CC1 [Example 89]" recorded_measurement=10.9
compound="COc1cccc(-c2cc3cc(-c4ccc(N5CCN(C(C)C)CC5)cc4)ccc3[nH]c2=O)c1 [Example 30]" recorded_measurement=5.21

I = Cc1ccccc1-c1cc2cc(-c3ccc(N4CCN(C(C)C)CC4)cc3)ccc2[nH]c1=O [Example 25]
II = CC(=O)Nc1ccc(-c2cc3cc(-c4ccc(C5CCN(C(C)C)CC5)cc4)ccc3[nH]c2=O)cc1 [Example 81]
IN: When the recorded IC50 values are compared, which is smaller: that of I or that of II ? In your reply, give the label of the chosen option.
OUT: II

a = CC(C)N1CCN(c2ccc(-c3ccc4[nH]c(=O)c(-c5ccc(C(N)=O)cc5)cc4c3)cc2)CC1 [Example 53]
b = CCc1c(-c2ccc(OC)c(OC)c2)c(=O)[nH]c2ccc(-c3ccc(N4CCN(C(C)C)CC4)cc3)cc12 [Example 95]
IN: Could you point out whether the larger IC50 belongs to a or to b ? In your reply, give the label of the chosen option.
OUT: a

----------
# assayed.system: human TLR8 (Homo sapiens)
# Construct: host or cells: HEK-Blue cells
# Sequence (Q9NR97 27-1041): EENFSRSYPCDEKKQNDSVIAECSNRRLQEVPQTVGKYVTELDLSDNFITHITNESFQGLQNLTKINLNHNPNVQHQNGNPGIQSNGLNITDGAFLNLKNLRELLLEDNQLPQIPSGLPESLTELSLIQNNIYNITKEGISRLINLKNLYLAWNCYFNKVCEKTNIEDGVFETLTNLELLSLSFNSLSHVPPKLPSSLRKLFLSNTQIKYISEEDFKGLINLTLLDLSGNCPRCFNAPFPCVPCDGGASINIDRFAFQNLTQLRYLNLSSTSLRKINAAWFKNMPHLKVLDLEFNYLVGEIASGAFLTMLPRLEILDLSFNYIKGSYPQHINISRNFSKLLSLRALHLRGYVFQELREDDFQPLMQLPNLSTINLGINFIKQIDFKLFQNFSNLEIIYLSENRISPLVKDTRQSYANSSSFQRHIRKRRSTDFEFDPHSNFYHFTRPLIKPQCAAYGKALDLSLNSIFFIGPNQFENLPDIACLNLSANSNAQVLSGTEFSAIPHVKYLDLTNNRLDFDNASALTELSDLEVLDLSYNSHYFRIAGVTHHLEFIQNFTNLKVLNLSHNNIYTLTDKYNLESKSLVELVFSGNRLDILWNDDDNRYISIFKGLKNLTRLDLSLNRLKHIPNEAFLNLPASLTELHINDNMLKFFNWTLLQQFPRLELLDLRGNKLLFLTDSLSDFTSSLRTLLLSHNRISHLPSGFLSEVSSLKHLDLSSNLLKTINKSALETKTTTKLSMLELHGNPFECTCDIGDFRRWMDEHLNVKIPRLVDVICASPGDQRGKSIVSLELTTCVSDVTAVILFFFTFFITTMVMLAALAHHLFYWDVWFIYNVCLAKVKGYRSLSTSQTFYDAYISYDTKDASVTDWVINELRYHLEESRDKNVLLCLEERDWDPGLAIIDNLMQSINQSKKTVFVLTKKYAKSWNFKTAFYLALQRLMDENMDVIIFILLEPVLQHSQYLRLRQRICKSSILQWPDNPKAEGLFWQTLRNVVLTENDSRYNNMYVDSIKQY
# test.summary: TLR8 inhibition reporter assay (HEK-Blue cells, SEAP reporter)
# Type: cell-based
# condition.details: HEK-Blue cells overexpressing human TLR8; stimulated with R848 15.9 μM; SEAP read after 22 hour; dose range 0.05 nM-50 μM
pIC50: −log10 of the molar value.
Examples of compounds with documented pIC50 follow.

compound=CC(C)N1CCN(c2ccc(-c3ccc4[nH]c(=O)c(-c5ccc(Cl)cc5)cc4c3)cc2)CC1 recorded_measurement="≤ 4.30"
compound=CC(C)N1CCN(c2ccc(-c3ccc4[nH]c(=O)c(-c5cc(F)c(F)cc5F)cc4c3)cc2)CC1 recorded_measurement="≤ 4.30"
compound=CC(C)N1CCN(c2ccc(-c3ccc4[nH]c(=O)c(-c5ccc(-n6cnnn6)cc5)cc4c3)cc2)CC1 recorded_measurement="≤ 4.30"
compound=CC(C)N1CCN(c2ccc(-c3ccc4[nH]c(=O)c(-c5ccccc5F)cc4c3)cc2)CC1 recorded_measurement=5.61

IN: Param item = CC(C)N1CCC(c2ccc(-c3ccc4c(c3)cc(-c3ccc(N(C)S(C)(=O)=O)cc3)c(=O)n4C)cc2)CC1 ; retrieve measured pIC50.
OUT: 4.53

IN: Do the same for CC(C)N1CCC(c2ccc(-c3ccc4c(c3)cc(-c3ccc(S(C)(=O)=O)cc3)c(=O)n4CCO)cc2)CC1 please
OUT: 4.66

IN: Do the same for CC(C)N1CCN(c2ccc(-c3ccc4[nH]c(=O)c(-c5ccc(N6CCCC6=O)cc5)cc4c3)cc2)CC1 please
OUT: ≤ 4.30

IN: Do the same for CC(C)N1CCC(c2ccc(-c3ccc4[nH]c(=O)c(-c5ccc(NS(C)(=O)=O)cc5)cc4c3)cc2)CC1 please
OUT: ≤ 4.30

IN: Do the same for CC(C)N1CCN(c2ccc(-c3ccc4c(c3)cc(-c3ccc(N(C)S(C)(=O)=O)cc3)c(=O)n4C)cc2)CC1 please
OUT: 4.44

IN: Do the same for CC(C)N1CCN(c2ccc(-c3ccc4[nH]c(=O)c(-c5ccccc5Cl)cc4c3)cc2)CC1 please
OUT: ≤ 4.30

IN: Do the same for CC(=O)Nc1ccc(-c2cc3cc(-c4ccc(N5CCN(C(C)C)CC5)cc4)ccc3[nH]c2=O)cc1 please
OUT: ≤ 4.30

IN: Do the same for CC(C)N1CCN(c2ccc(-c3ccc4[nH]c(=O)c(-c5cccnc5)cc4c3)cc2)CC1 please
OUT: 7.77

IN: Do the same for CCc1c(-c2ccc(S(C)(=O)=O)cc2)c(=O)[nH]c2ccc(C3CCN(C4CCN(C(C)C)CC4)CC3)cc12 please
OUT: ≤ 4.30

----------
# assayed.system: human TLR8 (Homo sapiens, UniProt Q9NR97)
# Sequence (Q9NR97 27-1041): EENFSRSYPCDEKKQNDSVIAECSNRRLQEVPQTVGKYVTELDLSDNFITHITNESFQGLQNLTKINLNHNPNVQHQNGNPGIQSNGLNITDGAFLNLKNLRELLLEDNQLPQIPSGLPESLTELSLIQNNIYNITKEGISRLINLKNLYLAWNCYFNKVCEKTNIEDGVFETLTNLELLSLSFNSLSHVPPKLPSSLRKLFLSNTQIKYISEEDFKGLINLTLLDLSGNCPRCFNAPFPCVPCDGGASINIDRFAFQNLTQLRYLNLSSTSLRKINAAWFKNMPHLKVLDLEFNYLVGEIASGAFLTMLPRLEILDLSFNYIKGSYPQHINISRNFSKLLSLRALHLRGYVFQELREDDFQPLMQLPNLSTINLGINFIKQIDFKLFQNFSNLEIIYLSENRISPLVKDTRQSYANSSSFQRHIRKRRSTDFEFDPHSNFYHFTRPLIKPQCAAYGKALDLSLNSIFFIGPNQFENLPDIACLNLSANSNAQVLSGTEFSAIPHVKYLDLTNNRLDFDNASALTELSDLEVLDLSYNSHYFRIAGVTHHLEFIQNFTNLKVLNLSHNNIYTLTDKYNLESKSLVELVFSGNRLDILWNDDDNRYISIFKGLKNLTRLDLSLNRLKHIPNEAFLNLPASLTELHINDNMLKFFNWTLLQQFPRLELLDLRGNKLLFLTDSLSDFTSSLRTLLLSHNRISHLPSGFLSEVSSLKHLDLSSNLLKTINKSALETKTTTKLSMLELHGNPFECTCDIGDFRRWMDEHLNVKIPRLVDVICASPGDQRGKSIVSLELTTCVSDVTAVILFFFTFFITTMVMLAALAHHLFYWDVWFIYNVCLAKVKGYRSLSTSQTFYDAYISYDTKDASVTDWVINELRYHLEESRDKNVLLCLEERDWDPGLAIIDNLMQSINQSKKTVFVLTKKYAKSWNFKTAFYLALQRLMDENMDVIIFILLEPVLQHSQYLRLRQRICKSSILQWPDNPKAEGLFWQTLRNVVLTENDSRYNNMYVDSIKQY
# test.summary: TLR8 inhibition reporter assay (HEK-Blue cells, SEAP reporter)
# condition.details: HEK-Blue cells overexpressing human TLR8; stimulated with R848 15.9 μM; SEAP read after 22 hour; dose range 0.05 nM-50 μM
outcome.measure: IC50 (µM)

In the examples that follow, each entry is paired with its recorded IC50.
compound=CC(C)N1CCN(c2ccc(-c3ccc4[nH]c(=O)c(-c5ccc(N(C)C)cc5)cc4c3)cc2)CC1 outcome_measure=IC50 display_unit=µM recorded_measurement=13.7
compound=CC(C)N1CCN(c2ccc(-c3ccc4[nH]c(=O)c(-c5cn(C)c6ccccc56)cc4c3)cc2)CC1 outcome_measure=IC50 display_unit=µM recorded_measurement=6.88

P = CCn1c(=O)c(-c2ccc(S(C)(=O)=O)cc2)cc2cc(-c3ccc(C4CCN(C(C)C)CC4)cc3)ccc21
Q = CC(C)N1CCN(c2ccc(-c3ccc4[nH]c(=O)c(-c5ccc(C#N)cc5)cc4c3)cc2)CC1
R = CC(C)N1CCN(c2ccc(-c3ccc4[nH]c(=O)c(-c5cccc(NS(C)(=O)=O)c5)cc4c3)cc2)CC1
S = CC(C)N1CCC(c2ccc(-c3ccc4[nH]c(=O)c(-c5ccc(N(C)C)cc5)cc4c3)cc2)CC1
IN: Sort the compounds on IC50; start with the lowest figure. Use the labels to give the requested order.
OUT: S, R, Q, P
